src = paper PMC9929129

Give half-life at 1 μM for every item shown.
assay: Metabolic stability in mouse liver microsomes (MLM)
Give bare numbers, in min.

# example entries with known answers
FC(F)(F)c1cc(NCc2cnc(-c3ccc(Cl)c(Cl)c3)nc2)ccn1; 61
FC(F)(F)c1cc(NCc2ccc(-c3cnc(Cl)c(C(F)(F)F)c3)cn2)ccn1; 384
FC(F)(F)c1cc(NCc2ccc(Br)cc2)ccn1; 61
FC(F)(F)c1cc(NCc2ccc(-c3ccc(Cl)cc3)cn2)ccn1; 57
CC(C)Oc1ccc(-c2ncc(CNc3ccnc(C(F)(F)F)c3)cn2)cc1Cl; 19
FC(F)(F)c1cc(NCc2ccccc2Br)ccn1; 4
FC(F)(F)c1cc(NCc2ccc(Cl)cc2)ccn1; 44
Fc1ccc(CNc2ccnc(C(F)(F)F)c2)cc1; 54
COc1ccc(-c2ccc(CNc3ccnc(C(F)(F)F)c3)nc2)cn1; 77
FC(F)(F)c1cc(NCc2ccc(-c3ccc(Cl)cc3)nc2)ccn1; 50

// for each compound in input: emit half-life at 1 μM
1. FC(F)(F)c1cc(OCc2ccc(-c3ccc(Cl)nc3)cn2)ccn1
2. FC(F)(F)c1cc(SCc2ccc(-c3ccc(Cl)nc3)cn2)ccn1
3. FC(F)(F)c1cc(NCc2cnc(-c3ccc(Oc4ccccc4)cc3)nc2)ccn1
4. COc1ncc(-c2ccc(CNc3ccnc(C(F)(F)F)c3)nc2)cc1Cl
5. FC(F)(F)c1cc(NCc2cccc(Br)c2)ccn1

1. 74
2. 6
3. 32
4. 2
5. 20

----------
assay: In vivo PK study, IP, SC and PO; conditions: male, CD-1, mouse, plasma, ip, 20 mg/kg
assay readout: Tmax
Number first, unit second.

molecule CC(C)Oc1ccc(-c2ncc(CNc3ccnc(C(F)(F)F)c3)cn2)cc1Cl , Tmax observed: 1 h

----------
target: CYP2C9 (Homo sapiens, UniProt P11712)
Sequence (P11712 whole entry): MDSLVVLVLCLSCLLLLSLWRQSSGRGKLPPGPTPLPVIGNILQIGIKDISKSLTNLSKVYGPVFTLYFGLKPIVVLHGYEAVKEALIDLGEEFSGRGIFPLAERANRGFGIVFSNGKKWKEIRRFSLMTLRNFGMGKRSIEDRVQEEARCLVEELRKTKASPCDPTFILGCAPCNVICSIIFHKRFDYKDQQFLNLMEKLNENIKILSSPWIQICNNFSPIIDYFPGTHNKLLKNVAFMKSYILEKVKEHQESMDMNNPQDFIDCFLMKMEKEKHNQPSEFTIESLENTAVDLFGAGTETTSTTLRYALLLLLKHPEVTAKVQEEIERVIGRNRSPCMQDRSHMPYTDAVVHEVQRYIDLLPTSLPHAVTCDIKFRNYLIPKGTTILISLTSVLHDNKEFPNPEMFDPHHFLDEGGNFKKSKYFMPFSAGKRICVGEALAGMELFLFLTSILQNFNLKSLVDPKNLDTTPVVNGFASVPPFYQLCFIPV
assay readout: IC50

compound CC(C)Oc1ccc(-c2ncc(CNc3ccnc(C(F)(F)F)c3)cn2)cc1Cl [Compound 24] , IC50 observed: > 25 µM

----------
test: In vivo PK study, IP, SC and PO; settings: male, CD-1, mouse, plasma, po, 20 mg/kg
assay readout: half-life (h)
Numbers only, in h.

molecule CC(C)Oc1ccc(-c2ncc(CNc3ccnc(C(F)(F)F)c3)cn2)cc1Cl [Compound 24] , half-life observed: 1.9

----------
assay: In vivo PK study, IP, SC and PO; conditions: male, CD-1, mouse, plasma, intraperitoneal, 20 mg/kg
assay readout: bioavailability

compound CC(C)Oc1ccc(-c2ncc(CNc3ccnc(C(F)(F)F)c3)cn2)cc1Cl [Compound 24] , bioavailability observed: ~36%

----------
experiment: In vivo PK study, IP, SC and PO; details: male, CD-1, mouse, plasma, sc, 20 mg/kg
assay readout: AUC(0-t)

compound CC(C)Oc1ccc(-c2ncc(CNc3ccnc(C(F)(F)F)c3)cn2)cc1Cl , AUC(0-t) observed: 363 µg·h/mL

----------
tested on: PA14 biofilm; assay: eDNA release assay; assay type: cell-based; settings: Pseudomonas aeruginosa; PA14, propidium iodine staining
assay readout: IC50

compound CC(C)Oc1ccc(-c2ncc(CNc3ccnc(C(F)(F)F)c3)cn2)cc1Cl , IC50 observed: 346 nM

----------
test: In vivo PK study, intratracheal (IT) and intravenous (IV); settings: male, CD1, mouse, plasma, inhaled or intranasal, […], Tmax, […] IT
assay readout: Tmax
Number first, unit second.

molecule NC[C@H]1O[C@H](O[C@H]2[C@H](O)[C@@H](O[C@H]3O[C@H](CO)[C@@H](O)[C@H](N)[C@H]3O)[C@H](N)C[C@@H]2N)[C@H](N)C[C@@H]1O , Tmax observed: 40.2 min

----------
test system: Pseudomonas aeruginosa strain PA14; assay: Alkylquinolone quantification, strain PA14; type: cell-based; conditions: PA14, 17 h, read-out: IC50 PA14, 2‐AA biosynthesis
assay readout: pIC50
Numbers only, as −log10 of the molar value.

compound CC(C)Oc1ccc(-c2ncc(CNc3ccnc(C(F)(F)F)c3)cn2)cc1Cl , pIC50 observed: 6.41

----------
molecular target: TRPA1 channel (Homo sapiens); test: Ion channel profiling at Charles River: TRPA1; details: expressed in CHO cells; read-out: ESTIMATED IC50
Sequence (O75762 whole entry): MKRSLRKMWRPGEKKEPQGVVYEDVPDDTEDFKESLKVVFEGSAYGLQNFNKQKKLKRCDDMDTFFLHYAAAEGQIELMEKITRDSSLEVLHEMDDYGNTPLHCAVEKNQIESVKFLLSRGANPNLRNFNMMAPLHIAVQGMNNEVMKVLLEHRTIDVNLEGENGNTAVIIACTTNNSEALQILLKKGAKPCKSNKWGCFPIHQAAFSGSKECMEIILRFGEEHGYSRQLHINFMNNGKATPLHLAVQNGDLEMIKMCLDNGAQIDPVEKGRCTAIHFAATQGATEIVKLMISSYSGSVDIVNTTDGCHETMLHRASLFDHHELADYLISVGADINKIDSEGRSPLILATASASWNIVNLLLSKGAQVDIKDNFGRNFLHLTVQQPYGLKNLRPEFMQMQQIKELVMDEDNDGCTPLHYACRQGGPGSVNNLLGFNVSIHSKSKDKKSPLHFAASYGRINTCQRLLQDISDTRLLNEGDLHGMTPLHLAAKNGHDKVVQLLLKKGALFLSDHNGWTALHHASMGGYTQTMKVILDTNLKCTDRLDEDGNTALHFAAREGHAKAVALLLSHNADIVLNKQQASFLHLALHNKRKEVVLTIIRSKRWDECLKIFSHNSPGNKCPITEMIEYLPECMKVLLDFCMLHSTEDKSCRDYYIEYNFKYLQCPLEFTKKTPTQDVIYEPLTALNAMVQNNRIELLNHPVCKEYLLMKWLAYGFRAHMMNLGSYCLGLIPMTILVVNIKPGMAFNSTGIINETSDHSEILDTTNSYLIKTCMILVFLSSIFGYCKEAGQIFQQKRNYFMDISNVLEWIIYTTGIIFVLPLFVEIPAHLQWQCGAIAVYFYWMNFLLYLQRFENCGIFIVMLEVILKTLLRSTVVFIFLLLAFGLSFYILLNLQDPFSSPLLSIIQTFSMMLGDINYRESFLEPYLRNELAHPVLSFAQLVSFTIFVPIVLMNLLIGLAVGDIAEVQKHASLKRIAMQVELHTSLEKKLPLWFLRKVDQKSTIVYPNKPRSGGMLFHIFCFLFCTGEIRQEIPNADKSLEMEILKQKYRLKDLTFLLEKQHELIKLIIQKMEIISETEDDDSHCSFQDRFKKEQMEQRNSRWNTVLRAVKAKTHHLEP
assay readout: IC50

compound CC(C)Oc1ccc(-c2ncc(CNc3ccnc(C(F)(F)F)c3)cn2)cc1Cl [Compound 24] , IC50 observed: > 30 µM

----------
assay: Metabolic stability in mouse hepatocytes; format: in vitro ADME; conditions: read-out: Mouse hepatocytes t½
assay readout: half-life (min)
Answers are plain numbers, in min.

compound CC(C)Oc1ccc(-c2ncc(CNc3ccnc(C(F)(F)F)c3)cn2)cc1Cl , half-life observed: 9

----------
molecular target: IK (KCa3.1) calcium-activated potassium channel (Homo sapiens, UniProt O15554); assay: Ion channel profiling at Charles River: IK; details: expressed in CHO cells; read-out: ESTIMATED IC50
assay readout: IC50

Field IC50 (IK (KCa3.1) calcium-activated potassium channel (Homo sapiens, UniProt O15554)), entry CC(C)Oc1ccc(-c2ncc(CNc3ccnc(C(F)(F)F)c3)cn2)cc1Cl [Compound 24] : > 30 µM

----------
target: hKv1.5 potassium channels (Homo sapiens, UniProt P22460); construct: host or cells: CHO cells; experiment: Ion channel profiling at Charles River: hKv1.5; format: cell-based; details: read-out: hKv1.5 functional inhibition IC50
Sequence (P22460 whole entry): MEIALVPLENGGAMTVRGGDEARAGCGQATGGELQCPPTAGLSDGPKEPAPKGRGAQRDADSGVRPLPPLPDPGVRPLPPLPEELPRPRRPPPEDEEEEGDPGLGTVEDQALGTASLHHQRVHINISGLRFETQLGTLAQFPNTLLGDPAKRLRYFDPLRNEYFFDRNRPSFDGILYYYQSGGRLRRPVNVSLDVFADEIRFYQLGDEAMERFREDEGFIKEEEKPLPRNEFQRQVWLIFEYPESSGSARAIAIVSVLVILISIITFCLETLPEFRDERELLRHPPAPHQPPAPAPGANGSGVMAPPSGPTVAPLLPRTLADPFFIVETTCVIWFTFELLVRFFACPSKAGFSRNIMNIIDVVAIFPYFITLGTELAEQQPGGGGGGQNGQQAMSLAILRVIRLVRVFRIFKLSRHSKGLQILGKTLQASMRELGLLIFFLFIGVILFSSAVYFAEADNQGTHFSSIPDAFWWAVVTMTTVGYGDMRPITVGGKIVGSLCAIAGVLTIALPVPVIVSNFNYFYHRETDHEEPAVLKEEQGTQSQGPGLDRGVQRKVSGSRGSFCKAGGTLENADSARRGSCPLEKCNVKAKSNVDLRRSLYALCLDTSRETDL
pIC50: −log10 of the molar value.
assay readout: pIC50

Field pIC50 (hKv1.5 potassium channels (Homo sapiens, UniProt P22460)), entry CC(C)Oc1ccc(-c2ncc(CNc3ccnc(C(F)(F)F)c3)cn2)cc1Cl : ~4.52

----------
Experiment: In vivo PK study, intratracheal (IT) and intravenous (IV)
Settings: male, CD1, mouse, in vivo, inhaled or intranasal, […]
Method: The enzymatic activity of the MLM First, a calibration curve was prepared by […] lavage fluid (BALF). Caffeine was used as The in live part for the IV and IT PK studies were performed at CRO Saretius (UK). Groups of male CD1 […] light/dark cycle with free access to food and water. Temperature and humidity were controlled according to U.K. HO regulations. […]
assay readout: half-life (min)
One number for each entry, in min.

compound CC(C)Oc1ccc(-c2ncc(CNc3ccnc(C(F)(F)F)c3)cn2)cc1Cl , half-life observed: 48.6

----------
experiment: In vivo PK study, IP, SC and PO; settings: male, CD-1, mouse, plasma, sc, 20 mg/kg
assay readout: half-life (h)
Answers are plain numbers, in h.

compound CC(C)Oc1ccc(-c2ncc(CNc3ccnc(C(F)(F)F)c3)cn2)cc1Cl , half-life observed: 1.51

----------
target: TRPV4 channel (Homo sapiens); assay: Ion channel profiling at Charles River: TRPV4; conditions: expressed in CHO cells; read-out: ESTIMATED IC50
Sequence (Q9HBA0 whole entry): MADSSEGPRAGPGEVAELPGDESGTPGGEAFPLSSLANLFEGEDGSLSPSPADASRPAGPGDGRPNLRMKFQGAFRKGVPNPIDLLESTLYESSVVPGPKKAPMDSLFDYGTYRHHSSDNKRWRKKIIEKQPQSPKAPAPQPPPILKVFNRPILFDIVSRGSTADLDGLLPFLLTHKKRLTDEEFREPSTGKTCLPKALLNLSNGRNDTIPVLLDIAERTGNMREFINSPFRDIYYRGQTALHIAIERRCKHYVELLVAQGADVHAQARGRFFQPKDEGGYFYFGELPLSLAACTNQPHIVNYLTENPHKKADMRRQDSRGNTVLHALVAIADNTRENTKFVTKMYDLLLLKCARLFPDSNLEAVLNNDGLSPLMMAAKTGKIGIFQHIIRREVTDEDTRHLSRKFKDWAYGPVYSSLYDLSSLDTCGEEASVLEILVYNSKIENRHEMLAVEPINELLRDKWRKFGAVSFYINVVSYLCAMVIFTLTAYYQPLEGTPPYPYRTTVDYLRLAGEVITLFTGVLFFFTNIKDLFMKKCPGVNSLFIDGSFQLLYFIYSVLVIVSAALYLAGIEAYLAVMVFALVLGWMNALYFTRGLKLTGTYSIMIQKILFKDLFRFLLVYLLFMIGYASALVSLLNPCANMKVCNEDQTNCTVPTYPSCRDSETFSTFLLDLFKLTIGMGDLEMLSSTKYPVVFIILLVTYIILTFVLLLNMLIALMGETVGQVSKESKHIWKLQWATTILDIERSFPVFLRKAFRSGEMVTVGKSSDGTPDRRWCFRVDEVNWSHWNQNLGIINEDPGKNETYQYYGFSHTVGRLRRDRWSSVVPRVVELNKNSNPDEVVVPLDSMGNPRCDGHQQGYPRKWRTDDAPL
pIC50: −log10 of the molar value.
assay readout: pIC50

Field pIC50 (TRPV4 channel (Homo sapiens)), entry CC(C)Oc1ccc(-c2ncc(CNc3ccnc(C(F)(F)F)c3)cn2)cc1Cl [Compound 24] : < 4.52

----------
target: CYP3A4 (Homo sapiens); construct: Cyprotex; assay: Cytochrome P450 inhibition assay, CYP3A4; type: in vitro ADME; conditions: Metabolic activity; activation observed
Sequence (P08684 whole entry): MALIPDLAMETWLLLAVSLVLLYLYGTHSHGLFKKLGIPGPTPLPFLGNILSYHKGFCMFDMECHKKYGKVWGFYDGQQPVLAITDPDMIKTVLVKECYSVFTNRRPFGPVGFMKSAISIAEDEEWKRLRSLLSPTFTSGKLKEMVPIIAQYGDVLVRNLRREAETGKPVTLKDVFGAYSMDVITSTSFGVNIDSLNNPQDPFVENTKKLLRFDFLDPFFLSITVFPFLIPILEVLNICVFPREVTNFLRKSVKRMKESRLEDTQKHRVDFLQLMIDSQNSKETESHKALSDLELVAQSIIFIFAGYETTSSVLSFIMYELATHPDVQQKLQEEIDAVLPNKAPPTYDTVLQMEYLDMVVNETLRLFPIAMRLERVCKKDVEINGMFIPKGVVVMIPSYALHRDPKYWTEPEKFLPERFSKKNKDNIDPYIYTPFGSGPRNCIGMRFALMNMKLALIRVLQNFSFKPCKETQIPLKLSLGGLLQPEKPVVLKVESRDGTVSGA
assay readout: IC50

molecule CC(C)Oc1ccc(-c2ncc(CNc3ccnc(C(F)(F)F)c3)cn2)cc1Cl [Compound 24] , IC50 observed: > 25 µM

----------
tested on: Pseudomonas aeruginosa strain PA14; assay: Alkylquinolone quantification, strain PA14; assay type: cell-based; conditions: PA14, 17 h, read-out: IC50 PA14, HQNO biosynthesis
assay readout: IC50 (nM)
Answers are plain numbers, in nM.

molecule CC(C)Oc1ccc(-c2ncc(CNc3ccnc(C(F)(F)F)c3)cn2)cc1Cl , IC50 observed: 347

----------
assay: Kinetic turbidimetric aqueous solubility; conditions: PBS buffer, kinetic from dmso stock
assay readout: solubility kinetic at 5 min (µM)
One number for each entry, in µM.

# example entries with known answers
CC(C)Oc1ccc(-c2ncc(CNc3ccnc(C(F)(F)F)c3)cn2)cc1 [Compound 22]; 41.7
FC(F)(F)c1cc(NCc2ccc(-c3ccc(Oc4ccccc4)nc3)cn2)ccn1 [Compound 19]; 25.6
FC(F)(F)c1cc(NCc2cnc(-c3ccc(Cl)c(Cl)c3)nc2)ccn1 [Compound 20]; 16.6
COc1ncc(-c2ccc(CNc3ccnc(C(F)(F)F)c3)nc2)cc1Cl [Compound 18]; 42.4
FC(F)(F)c1cc(NCc2ccc(-c3ccc(Cl)cc3)nc2)ccn1 [Compound 8]; 38.9

// for each molecule in input: emit solubility kinetic at 5 min
1. FC(F)(F)c1cc(NCc2cnc(-c3ccc(C4CC4)cc3)nc2)ccn1 [Compound 23]
2. CC(C)Oc1ccc(-c2ncc(CNc3ccnc(C(F)(F)F)c3)cn2)cc1Cl [Compound 24]
3. FC(F)(F)c1cc(OCc2ccc(-c3ccc(Cl)nc3)cn2)ccn1 [Compound 12]

1: 16.5; 2: 47.2; 3: 48.1

----------
target: GABAA α5/β3/γ2 ionotropic receptor (Homo sapiens, UniProt P18507+P28472+P31644); assay: Ion channel profiling at Charles River: GABAA
Sequence (P31644 32-462): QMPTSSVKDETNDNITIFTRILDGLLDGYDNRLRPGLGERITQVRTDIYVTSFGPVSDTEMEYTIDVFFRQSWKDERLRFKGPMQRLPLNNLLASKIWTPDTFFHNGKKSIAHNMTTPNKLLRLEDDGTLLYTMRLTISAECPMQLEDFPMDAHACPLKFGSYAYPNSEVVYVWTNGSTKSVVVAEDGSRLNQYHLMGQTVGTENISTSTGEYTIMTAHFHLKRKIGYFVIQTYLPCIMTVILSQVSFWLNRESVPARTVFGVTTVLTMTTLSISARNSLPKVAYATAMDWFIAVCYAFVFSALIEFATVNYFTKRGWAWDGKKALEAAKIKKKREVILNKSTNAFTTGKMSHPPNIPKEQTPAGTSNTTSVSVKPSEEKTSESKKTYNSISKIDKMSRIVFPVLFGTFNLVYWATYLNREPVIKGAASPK
Sequence (P28472 26-473): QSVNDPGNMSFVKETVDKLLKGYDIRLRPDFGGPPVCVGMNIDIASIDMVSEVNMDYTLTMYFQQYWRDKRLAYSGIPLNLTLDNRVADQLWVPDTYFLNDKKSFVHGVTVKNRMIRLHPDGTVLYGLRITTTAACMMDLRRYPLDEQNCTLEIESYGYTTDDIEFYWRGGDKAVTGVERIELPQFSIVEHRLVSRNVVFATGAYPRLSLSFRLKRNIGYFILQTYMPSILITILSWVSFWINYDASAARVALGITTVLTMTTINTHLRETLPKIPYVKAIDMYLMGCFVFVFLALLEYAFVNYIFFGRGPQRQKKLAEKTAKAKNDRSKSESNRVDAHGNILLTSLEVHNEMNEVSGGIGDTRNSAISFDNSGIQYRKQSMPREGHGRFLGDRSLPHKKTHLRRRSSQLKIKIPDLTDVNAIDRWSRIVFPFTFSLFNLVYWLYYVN
Sequence (P18507 40-475): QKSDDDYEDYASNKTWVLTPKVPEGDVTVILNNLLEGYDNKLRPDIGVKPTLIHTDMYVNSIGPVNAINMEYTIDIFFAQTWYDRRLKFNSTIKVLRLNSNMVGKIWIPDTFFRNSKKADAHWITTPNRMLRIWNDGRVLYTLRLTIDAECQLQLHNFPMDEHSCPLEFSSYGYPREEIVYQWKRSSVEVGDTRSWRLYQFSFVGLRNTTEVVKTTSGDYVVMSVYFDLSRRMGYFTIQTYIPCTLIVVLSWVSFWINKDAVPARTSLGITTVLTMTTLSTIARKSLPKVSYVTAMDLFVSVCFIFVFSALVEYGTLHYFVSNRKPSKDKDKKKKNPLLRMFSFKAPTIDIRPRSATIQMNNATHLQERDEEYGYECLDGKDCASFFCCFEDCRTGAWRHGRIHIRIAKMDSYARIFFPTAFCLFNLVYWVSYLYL
pIC50: −log10 of the molar value.
assay readout: pIC50

Field pIC50 (GABAA α5/β3/γ2 ionotropic receptor (Homo sapiens, UniProt P18507+P28472+P31644)), entry CC(C)Oc1ccc(-c2ncc(CNc3ccnc(C(F)(F)F)c3)cn2)cc1Cl : < 4.52
